tested on: Mycolicibacterium fortuitum; experiment: Antibacterial activity against nonpigmented rapidly growing Mycobacterium fortuitum after 3 days by broth microdilution method; type: functional; settings: 72 h
Each entry below carries its recorded MIC90.
Value expressed in µg/mL; do not type the unit.

Solved cases below.
>>> value_reported("C[C@H]1c2cccc(O)c2C(=O)C2=C(O)[C@]3(O)C(=O)C(C(N)=O)=C(O)[C@@H](N(C)C)[C@@H]3[C@@H](O)[C@@H]21.O")
64
>>> value_reported("O=C(O)c1cn(C2CC2)c2cc(N3CCNCC3)c(F)cc2c1=O")
0.12

Measured on Mycolicibacterium fortuitum, NCC[C@H](O)C(=O)N[C@@H]1C[C@H](N)[C@@H](O[C@H]2O[C@H](CN)[C@@H](O)[C@H](O)[C@H]2O)[C@H](O)[C@H]1O[C@H]1O[C@H](CO)[C@@H](O)[C@H](N)[C@H]1O has a documented MIC90 of 2

Measured on Mycolicibacterium fortuitum, CN(C)c1cc(NC(=O)CNC(C)(C)C)c(O)c2c1C[C@H]1C[C@H]3[C@H](N(C)C)C(O)=C(C(N)=O)C(=O)[C@@]3(O)C(O)=C1C2=O has a documented MIC90 of 0.25

====

tested on: Mycolicibacterium fortuitum; experiment: Antibacterial activity against nonpigmented rapidly growing Mycobacterium fortuitum after 3 days by broth microdilution method; format: functional; details: 72 h
Each entry below carries its recorded MIC50.

Solved cases below.
>>> value_reported("C[C@H]1COc2c(N3CCN(C)CC3)c(F)cc3c(=O)c(C(=O)O)cn1c23.C[C@H]1COc2c(N3CCN(C)CC3)c(F)cc3c(=O)c(C(=O)O)cn1c23.O")
"0.06 µg/mL"
>>> value_reported("CC[C@H]1OC(=O)[C@H](C)[C@@H](O[C@H]2C[C@@](C)(OC)[C@@H](O)[C@H](C)O2)[C@H](C)[C@@H](O[C@@H]2O[C@H](C)C[C@H](N(C)C)[C@H]2O)[C@](C)(O)C[C@@H](C)C(=O)[C@H](C)[C@@H](O)[C@]1(C)O")
"64 µg/mL"

Please fill in: MIC50 reported for CC[C@H]1OC(=O)[C@H](C)[C@@H](O[C@H]2C[C@@](C)(OC)[C@@H](O)[C@H](C)O2)[C@H](C)[C@@H](O[C@@H]2O[C@H](C)C[C@H](N(C)C)[C@H]2O)[C@](C)(O)C[C@@H](C)CN(C)[C@H](C)[C@@H](O)[C@]1(C)O = 8 µg/mL

Please fill in: MIC50 reported for NCC[C@H](O)C(=O)N[C@@H]1C[C@H](N)[C@@H](O[C@H]2O[C@H](CN)[C@@H](O)[C@H](O)[C@H]2O)[C@H](O)[C@H]1O[C@H]1O[C@H](CO)[C@@H](O)[C@H](N)[C@H]1O = 1 µg/mL

Please fill in: MIC50 reported for O=C(O)c1cn(C2CC2)c2cc(N3CCNCC3)c(F)cc2c1=O = ≤ 0.03 µg/mL

====

system: Mycobacteroides abscessus; assay: Antibacterial activity against nonpigmented rapidly growing Mycobacterium abscessus after 3 days by broth microdilution method; assay type: functional; details: 72 h
measured endpoint: MIC90 (µg/mL)
Value expressed in µg/mL; do not type the unit.

>>> value_reported("CC[C@H]1OC(=O)[C@H](C)[C@@H](O[C@H]2C[C@@](C)(OC)[C@@H](O)[C@H](C)O2)[C@H](C)[C@@H](O[C@@H]2O[C@H](C)C[C@H](N(C)C)[C@H]2O)[C@](C)(O)C[C@@H](C)CN(C)[C@H](C)[C@@H](O)[C@]1(C)O [AZITHROMYCIN]")
2

# context switch: different compound, same MIC90
Please fill in: MIC90 reported for NC[C@H]1O[C@H](O[C@H]2[C@H](O)[C@@H](O[C@H]3O[C@H](CO)[C@@H](O)[C@H](N)[C@H]3O)[C@H](N)C[C@@H]2N)[C@H](N)C[C@@H]1O [TOBRAMYCIN] = 16

====

system: Mycobacteroides abscessus; assay: Antibacterial activity against nonpigmented rapidly growing Mycobacterium abscessus after 3 days by broth microdilution method; type: functional; settings: 72 h
measured endpoint: MIC50 (µg/mL)
Value expressed in µg/mL; do not type the unit.

Solved cases below.
>>> value_reported("CC[C@H]1OC(=O)[C@H](C)[C@@H](O[C@H]2C[C@@](C)(OC)[C@@H](O)[C@H](C)O2)[C@H](C)[C@@H](O[C@@H]2O[C@H](C)C[C@H](N(C)C)[C@H]2O)[C@](C)(O)C[C@@H](C)C(=O)[C@H](C)[C@@H](O)[C@]1(C)O")
1
>>> value_reported("O=C(O)c1cn(C2CC2)c2cc(N3CCNCC3)c(F)cc2c1=O")
2
>>> value_reported("NC[C@H]1O[C@H](O[C@H]2[C@H](O)[C@@H](O[C@H]3O[C@H](CO)[C@@H](O)[C@H](N)[C@H]3O)[C@H](N)C[C@@H]2N)[C@H](N)C[C@@H]1O")
8

Please fill in: MIC50 reported for CN(C)c1cc(NC(=O)CNC(C)(C)C)c(O)c2c1C[C@H]1C[C@H]3[C@H](N(C)C)C(O)=C(C(N)=O)C(=O)[C@@]3(O)C(O)=C1C2=O = 0.06

====

test system: Mycolicibacterium fortuitum; assay: Antibacterial activity against nonpigmented rapidly growing Mycobacterium fortuitum after 3 days by broth microdilution method; format: functional; conditions: 72 h
measured endpoint: MIC90 (µg/mL)
Value expressed in µg/mL; do not type the unit.

Solved cases below.
>>> value_reported("NC[C@H]1O[C@H](O[C@H]2[C@H](O)[C@@H](O[C@H]3O[C@H](CO)[C@@H](O)[C@H](N)[C@H]3O)[C@H](N)C[C@@H]2N)[C@H](N)C[C@@H]1O")
32
>>> value_reported("CC[C@H]1OC(=O)[C@H](C)[C@@H](O[C@H]2C[C@@](C)(OC)[C@@H](O)[C@H](C)O2)[C@H](C)[C@@H](O[C@@H]2O[C@H](C)C[C@H](N(C)C)[C@H]2O)[C@](C)(OC)C[C@@H](C)C(=O)[C@H](C)[C@@H](O)[C@]1(C)O")
16

# context switch: different compound, same MIC90
Please fill in: MIC90 reported for C[C@H]1COc2c(N3CCN(C)CC3)c(F)cc3c(=O)c(C(=O)O)cn1c23.C[C@H]1COc2c(N3CCN(C)CC3)c(F)cc3c(=O)c(C(=O)O)cn1c23.O = 0.25

====

system: Mycobacterium alvei; assay: Antibacterial activity against nonpigmented rapidly growing Mycobacterium alvei after 3 days by broth microdilution method; type: functional; conditions: Mycolicibacterium alvei, 72 h
measured endpoint: MIC

Solved cases below.
>>> value_reported("CC[C@H]1OC(=O)[C@H](C)[C@@H](O[C@H]2C[C@@](C)(OC)[C@@H](O)[C@H](C)O2)[C@H](C)[C@@H](O[C@@H]2O[C@H](C)C[C@H](N(C)C)[C@H]2O)[C@](C)(O)C[C@@H](C)C(=O)[C@H](C)[C@@H](O)[C@]1(C)O [ERYTHROMYCIN]")
"≤ 0.03 mg/L"
>>> value_reported("CO[C@@]1(NC(=O)Cc2cccs2)C(=O)N2C(C(=O)O)=C(COC(N)=O)CS[C@@H]21 [CEFOXITIN]")
"2 mg/L"

# context switch: different molecule, same MIC
Measured on Mycobacterium alvei, CN(C)c1cc(NC(=O)CNC(C)(C)C)c(O)c2c1C[C@H]1C[C@H]3[C@H](N(C)C)C(O)=C(C(N)=O)C(=O)[C@@]3(O)C(O)=C1C2=O [TIGECYCLINE] has a documented MIC of ≤ 0.03 mg/L

====

Each entry below carries its recorded MIC50.
test system: Mycobacteroides chelonae; assay: Antibacterial activity against nonpigmented rapidly growing Mycobacterium chelonae after 3 days by broth microdilution method; format: functional; conditions: 72 h
Value expressed in µg/mL; do not type the unit.

Solved cases below.
>>> value_reported("NCC[C@H](O)C(=O)N[C@@H]1C[C@H](N)[C@@H](O[C@H]2O[C@H](CN)[C@@H](O)[C@H](O)[C@H]2O)[C@H](O)[C@H]1O[C@H]1O[C@H](CO)[C@@H](O)[C@H](N)[C@H]1O [AMIKACIN]")
1
>>> value_reported("NC[C@H]1O[C@H](O[C@H]2[C@H](O)[C@@H](O[C@H]3O[C@H](CO)[C@@H](O)[C@H](N)[C@H]3O)[C@H](N)C[C@@H]2N)[C@H](N)C[C@@H]1O [TOBRAMYCIN]")
4
>>> value_reported("C[C@H]1c2cccc(O)c2C(=O)C2=C(O)[C@]3(O)C(=O)C(C(N)=O)=C(O)[C@@H](N(C)C)[C@@H]3[C@@H](O)[C@@H]21.O [DOXYCYCLINE]")
8

Please fill in: MIC50 reported for CC[C@H]1OC(=O)[C@H](C)[C@@H](O[C@H]2C[C@@](C)(OC)[C@@H](O)[C@H](C)O2)[C@H](C)[C@@H](O[C@@H]2O[C@H](C)C[C@H](N(C)C)[C@H]2O)[C@](C)(OC)C[C@@H](C)C(=O)[C@H](C)[C@@H](O)[C@]1(C)O [CLARITHROMYCIN] = 0.06
